# assay.info: Single dose pharmacokinetic study in male C57BL/6 mice
# Format: in vivo
# test.context: mouse, plasma, PO 30 mg/kg
recorded.metric: AUC(0-t) (ng·h/mL)
Numbers only, in ng·h/mL.

Which AUC(0-t) value belongs to CC1CC(C)CN(c2ccc(C(CC(=O)O)C(F)(F)F)cc2NC(=O)Nc2ccc(C#N)cc2)C1 (stereo not shown) [i12] ?
11500

* * *

I'd appreciate it if you could supply IC50 values for the items below.
# study.system: Recombinant human IDO1 (rhIDO1) (Homo sapiens, UniProt P14902)
# Construct: made in house
# Sequence (P14902 whole entry): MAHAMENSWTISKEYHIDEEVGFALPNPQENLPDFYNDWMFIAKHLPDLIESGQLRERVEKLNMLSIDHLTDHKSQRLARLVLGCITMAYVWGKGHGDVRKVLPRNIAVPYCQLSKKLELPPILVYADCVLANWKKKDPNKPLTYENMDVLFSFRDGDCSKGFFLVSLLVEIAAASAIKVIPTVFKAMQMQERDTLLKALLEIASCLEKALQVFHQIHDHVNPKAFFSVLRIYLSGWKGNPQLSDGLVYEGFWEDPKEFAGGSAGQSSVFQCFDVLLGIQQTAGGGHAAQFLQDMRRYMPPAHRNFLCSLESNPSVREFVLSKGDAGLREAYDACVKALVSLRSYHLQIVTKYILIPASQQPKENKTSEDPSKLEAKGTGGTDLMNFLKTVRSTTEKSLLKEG
# assay.info: Enzyme assay for IDO1 inhibition
# Format: biochemical
# test.context: rhIDO1 enzyme assay, 37 °C, 45 min

These recorded examples may help you get a feel for the data.
>  <compound>
CC1CC(C)CN(c2ccc(C(CC(=O)O)C(F)(F)F)cc2NC(=O)Nc2ccccc2C#N)C1 (centres unmarked)

>  <result>
> 100 µM

$$$$
>  <compound>
CCCCNC(=O)Nc1cc(C(CC(=O)O)C(F)(F)F)ccc1N1CC(C)CC(C)C1 (centres unmarked)

>  <result>
> 100 µM

$$$$
>  <compound>
CC1CC(C)CN(c2ccc(C(CC(=O)O)C(F)(F)F)cc2NC(=O)Cc2ccc(C(F)(F)F)cc2)C1 (centres unmarked)

>  <result>
> 100 µM

$$$$
>  <compound>
COc1ccc(NC(=O)Nc2cc(C(CC(=O)O)C(F)(F)F)ccc2N2CC(C)CC(C)C2)cc1 (centres unmarked)

>  <result>
1.62 µM

$$$$
>  <compound>
CC1CC(C)CN(c2ccc(C(CC(=O)O)C(F)(F)F)cc2NC(=O)NC2CCCCC2)C1 (centres unmarked)

>  <result>
> 100 µM

$$$$

For each listed entry, give its IC50.
1. CC1CC(C)CN(c2ccc(C(CC(=O)O)C(F)(F)F)cc2NC(=O)Nc2ccc(C(C)C)cc2)C1 (centres unmarked)
2. CC1CC(C)CN(c2ccc(C(CC(=O)O)C(F)(F)F)cc2NC(=O)Nc2ccc(F)cc2)C1 (centres unmarked)
3. COc1cccc(NC(=O)Nc2cc(C(CC(=O)O)C(F)(F)F)ccc2N2CC(C)CC(C)C2)c1 (centres unmarked)
4. CCc1ccc(NC(=O)Nc2cc(C(CC(=O)O)C(F)(F)F)ccc2N2CC(C)CC(C)C2)cc1 (centres unmarked)
5. CC1CC(C)CN(c2ccc(C(CC(=O)O)C(F)(F)F)cc2NC(=O)Nc2ccccc2Cl)C1 (centres unmarked)
6. CC1CC(C)CN(c2ccc(C(CC(=O)O)C(F)(F)F)cc2NC(=O)Nc2ccc(OC(F)(F)F)cc2)C1 (centres unmarked)
7. CC1CC(C)CN(c2ccc(C(CC(=O)O)C(F)(F)F)cc2NC(=O)Nc2ccc(Br)cc2)C1 (centres unmarked)

["> 100 µM", "5.48 µM", "> 100 µM", "9.98 µM", "> 100 µM", "1.32 µM", "4.08 µM"]

For each listed entry, give its IC50.
1. Cc1cccc(NC(=O)Nc2cc(C(CC(=O)O)C(F)(F)F)ccc2N2CC(C)CC(C)C2)c1 (centres unmarked)
2. COc1ccccc1NC(=O)Nc1cc(C(CC(=O)O)C(F)(F)F)ccc1N1CC(C)CC(C)C1 (centres unmarked)
3. CC1CC(C)CN(c2ccc(C(CC(=O)O)C(F)(F)F)cc2NC(=O)Nc2ccc(C(F)(F)F)cc2)C1 (centres unmarked)
4. CC1CC(C)CN(c2ccc(C(CC(=O)O)C(F)(F)F)cc2NC(=O)Nc2cccc(Cl)c2)C1 (centres unmarked)
5. CCOC(=O)CC(c1ccc(N2CC(C)CC(C)C2)c(NC(=O)Nc2ccc(Cl)cc2)c1)C(F)(F)F (centres unmarked)
6. CCOC(=O)CC(c1ccc(N2CC(C)CC(C)C2)c(NC(=O)Nc2ccccc2)c1)C(F)(F)F (centres unmarked)
7. CC1CC(C)CN(c2ccc(C(CC(=O)O)C(F)(F)F)cc2NC(=O)Nc2ccc(C#N)cc2)C1 (centres unmarked)

1: > 100 µM; 2: > 100 µM; 3: 0.415 µM; 4: > 100 µM; 5: > 100 µM; 6: > 100 µM; 7: 0.331 µM

For each listed entry, give its IC50.
1. CC1CC(C)CN(c2ccc(C(CC(=O)O)C(F)(F)F)cc2NC(=O)Cc2ccc(C#N)cc2)C1 (centres unmarked)
2. Cc1ccccc1NC(=O)Nc1cc(C(CC(=O)O)C(F)(F)F)ccc1N1CC(C)CC(C)C1 (centres unmarked)
3. CC(C)CN(CC(C)C)c1ccc(C(CC(=O)O)C(F)(F)F)cc1NC(=O)Nc1ccc(F)cc1F (centres unmarked) [BMS-E30, reference compound]
4. CC1CC(C)CN(c2ccc(C(CC(=O)O)C(F)(F)F)cc2NC(=O)Nc2ccc(Cl)cc2Cl)C1 (centres unmarked)

["> 100 µM", "> 100 µM", "8.57 µM", "> 100 µM"]
